biological target: HIF-2α HIS TAG-PASB Domain (Homo sapiens, UniProt Q99814); assay: biochemical; format: binding; details: unnumbered compounds listed by structure and name; read-out: IC50 value in SPA
Sequence (Q99814 whole entry, looked up, the tested form may be a part): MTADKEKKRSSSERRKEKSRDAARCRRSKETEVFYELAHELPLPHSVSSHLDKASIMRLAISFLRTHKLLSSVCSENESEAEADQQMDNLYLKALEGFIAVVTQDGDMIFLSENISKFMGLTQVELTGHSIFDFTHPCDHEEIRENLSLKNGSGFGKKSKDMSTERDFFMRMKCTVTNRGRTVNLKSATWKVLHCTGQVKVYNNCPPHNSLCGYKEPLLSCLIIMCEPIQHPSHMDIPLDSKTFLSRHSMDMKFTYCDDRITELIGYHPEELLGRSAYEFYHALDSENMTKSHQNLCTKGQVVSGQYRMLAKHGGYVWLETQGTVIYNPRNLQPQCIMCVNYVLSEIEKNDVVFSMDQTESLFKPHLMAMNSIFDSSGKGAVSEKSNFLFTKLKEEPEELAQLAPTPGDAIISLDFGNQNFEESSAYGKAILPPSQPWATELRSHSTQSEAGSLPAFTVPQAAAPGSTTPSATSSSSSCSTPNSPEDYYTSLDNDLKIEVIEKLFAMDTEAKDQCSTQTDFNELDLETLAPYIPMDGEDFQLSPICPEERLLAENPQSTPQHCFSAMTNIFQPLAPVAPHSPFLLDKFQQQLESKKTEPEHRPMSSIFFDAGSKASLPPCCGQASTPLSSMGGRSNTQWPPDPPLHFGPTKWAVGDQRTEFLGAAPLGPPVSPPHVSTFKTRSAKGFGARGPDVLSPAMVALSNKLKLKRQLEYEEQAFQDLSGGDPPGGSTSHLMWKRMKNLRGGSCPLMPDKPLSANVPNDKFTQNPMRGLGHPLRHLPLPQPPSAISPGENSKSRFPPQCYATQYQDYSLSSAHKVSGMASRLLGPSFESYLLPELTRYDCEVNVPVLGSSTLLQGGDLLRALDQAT
pIC50: −log10 of the molar value.
# pIC50 values compiled below

- molecule: "NC1c2c(ccc(OC3CCOCC3)c2C(F)F)S(=O)(=O)C1(F)F (stereo not drawn)"
  pIC50: "4.00 to 4.60"
- molecule: "N=S1(=O)CC(O)c2c1ccc(Oc1cc(F)cc(F)c1)c2Br (stereo not drawn)"
  pIC50: "< 4.00"
- molecule: "N#CCNC1CS(=O)(=O)c2ccc(Oc3cc(F)cc(C#N)c3)c(C(F)F)c21 (stereo not drawn)"
  pIC50: "< 4.00"

Ask | Recorded pIC50 of N#CN=S1(=O)C[C@H](O)c2c1ccc(Oc1cc(F)cc(F)c1)c2Cl (stereo partly drawn) , please.
Reply | 4.00 to 4.60

Ask | Recorded pIC50 of O=S1(=O)C[C@H](O)c2c1ccc(Oc1cncc(F)c1)c2Br , please.
Reply | < 4.00

Ask | Recorded pIC50 of N#Cc1cc(F)cc(Oc2ccc3c(c2Cl)C(=O)C(F)(F)S3(=O)=O)c1 , please.
Reply | 4.00 to 4.60

----------
test system: VEGF in culture medium of 786-O cells; assay: VEGF ELISA Assay; type: cell-based
result_type: pEC50
Quick note: pEC50 values are minus log10 of concentrations in mol/L.

Ask | Observed pEC50 on VEGF in culture medium of 786-O cells for N=S1(=O)c2ccc(Oc3cc(F)cc(F)c3)c(C(F)F)c2C(O)C1(F)F (stereo not shown) [Compound 53] , please.
Reply | 7.17

----------
system: 786-O-Hif-Luc cells; assay: Luciferase Assay (HIF responsive element reporter); format: cell-based; details: 786-O-Hif-Luc cells, about 24 hours; read-out: Mean Luciferease EC50
pEC50: −log10 of the molar value.
result_type: pEC50

Completed entries (count: 4):
- compound: "N#Cc1cc(F)cc(Oc2ccc3c(c2C(F)F)[C@@H](N)C(F)(F)S3(=O)=O)c1"
  measured_target: "786-O-Hif-Luc cells"
  reported_measurement: 6.85
- compound: "O=S1(=O)c2ccc(Oc3cc(F)cc(Cl)c3)c(Br)c2C(O)C1(F)F (centres unmarked)"
  measured_target: "786-O-Hif-Luc cells"
  reported_measurement: 7.30
- compound: "N#Cc1cc(F)cc(Oc2ccc3c(c2C(F)F)C(O)C(F)(F)S3(=O)=O)c1 (centres unmarked)"
  measured_target: "786-O-Hif-Luc cells"
  reported_measurement: 8.40
- compound: "N#Cc1cc(F)cc(Oc2ccc3c(c2C(F)F)[C@@H](O)C(F)(F)S3(=O)=O)c1"
  measured_target: "786-O-Hif-Luc cells"
  reported_measurement: 8.15

P = N=S1(=O)c2ccc(Oc3cc(F)cc(F)c3)c(C(F)F)c2C(O)C1(F)F (centres unmarked)
Q = [2H]C1(O)c2c(ccc(Oc3cc(F)cc(C#N)c3)c2C(F)F)S(=O)(=O)C1(F)F (centres unmarked)
R = N#Cc1cncc(Oc2ccc3c(c2C(F)F)C(O)C(F)(F)S3(=O)=O)c1 (centres unmarked)
S = N=S1(=O)c2ccc(Oc3cc(F)cc(F)c3)c(Br)c2C(O)C1(F)F (centres unmarked)
Ask | Endpoint returns the given compounds ordered by ascending pEC50. Answer with the labels in sequence, matching the requested order.
Reply | S, R, P, Q

----------
system: 786-O-Hif-Luc cells; assay: Luciferase Assay (HIF responsive element reporter); assay type: cell-based; conditions: 24 h, read-out: Mean Luciferease EC50
result_type: EC50 (µM)
Form entry: value (µM) — number only.

Completed entries (count: 3):
- compound: "O=S1(=O)c2ccc(Oc3cncc(Cl)c3)c(C(F)F)c2C(O)C1(F)F (stereo not shown)"
  EC50 / µM: 0.15
- compound: "N#Cc1cc(F)cc(Oc2ccc3c(c2C(F)F)[C@H](O)C(F)(F)S3(=O)=O)c1"
  EC50 / µM: 0.02
- compound: "O=S1(=O)CC(O)c2c1ccc(Oc1cc(F)cc(Cl)c1)c2Br (stereo not shown)"
  EC50 / µM: 4.85

Below: the item to evaluate.
Ask | Recorded EC50 of Cc1c(Oc2cc(F)cc(Cl)c2)ccc2c1C(O)C(F)(F)S2(=O)=O (stereo not shown) , please.
Reply | 0.45

----------
target: HIF-2α HIS TAG-PASB Domain (Homo sapiens); assay: biochemical; type: binding; details: displacement of Compound 120 probe; mean; read-out: Mean SPA IC50
result_type: IC50 (nM)

- compound: "NC1c2c(ccc(Oc3cc(F)cc(F)c3)c2C(F)F)S(=O)(=O)C1F (centres unmarked) [Compound 20]"
  reported_measurement: 1540

I = CC1(O)c2c(ccc(OC3CC(F)(F)C3)c2C#N)S(=O)(=O)C1(F)F (centres unmarked) [Compound 115]
II = O=S1(=O)c2ccc(Oc3cncc(F)c3)c(Br)c2[C@@H](O)C1(F)F [Compound 77]
III = N#Cc1cc(F)cc(Oc2ccc3c(c2C#N)C(N)C(F)(F)S3(=O)=O)c1 (centres unmarked) [Compound 118]
Ask | List these items ordered by IC50, big to small. Answer with the labels in sequence, matching the requested order.
Reply | I, III, II

----------
tested on: 786-O-Hif-Luc cells; assay: Luciferase Assay (HIF responsive element reporter); type: cell-based; details: 786-O-Hif-Luc cells, about 24 hours; read-out: Mean Luciferease EC50
result_type: EC50 (nM)

- molecule: "N#Cc1cc(F)cc(Oc2ccc3c(c2C(F)F)C(=O)C(F)(F)S3(=O)=O)c1"
  EC50 / nM: 2790
- molecule: "NC1c2c(ccc(Oc3cc(F)cc(F)c3)c2Br)S(=O)(=O)C1(F)F (stereo not shown)"
  EC50 / nM: 1700
- molecule: "O=S1(=O)c2ccc(Oc3cc(F)cc(Cl)c3)c(Br)c2[C@H](O)C1(F)F"
  EC50 / nM: 170
- molecule: "N#Cc1c(Oc2cc(F)cc(Cl)c2)ccc2c1C(O)CS2(=O)=O (stereo not shown)"
  EC50 / nM: 450

P = O=S1(=O)c2ccc(Oc3cc(F)cc(Cl)c3)c(C(F)F)c2C(O)C1(F)F (stereo not shown)
Q = N#Cc1c(Oc2cc(F)cc(Cl)c2)ccc2c1C(O)C(F)(F)S2(=O)=O (stereo not shown)
Ask | Among P and Q , which shows a numerically higher EC50 result? Answer format: the label of the selected item.
Reply | Q

----------
target: HIF-2α HIS TAG-PASB Domain (Homo sapiens); test: biochemical; assay type: binding; conditions: displacement of Compound 120 probe; mean; read-out: Mean SPA IC50
result_type: IC50 (µM)

Completed entries (count: 5):
- compound: "O=S1(=O)c2ccc(Oc3cc(F)cc(Cl)c3)c(Br)c2C(O)C1(F)F (stereo not drawn)"
  measured_target: "HIF-2α HIS TAG-PASB Domain (Homo sapiens)"
  unit: "µM"
  IC50: 0.002
- compound: "N#Cc1c(Oc2cccc(F)c2)ccc2c1[C@@H](O)CS2(=O)=O"
  measured_target: "HIF-2α HIS TAG-PASB Domain (Homo sapiens)"
  unit: "µM"
  IC50: 0.75
- compound: "N#Cc1cncc(Oc2ccc3c(c2Br)[C@@H](O)C(F)(F)S3(=O)=O)c1"
  measured_target: "HIF-2α HIS TAG-PASB Domain (Homo sapiens)"
  unit: "µM"
  IC50: 0.12
- compound: "CC1(O)c2c(ccc(OCc3ccccc3)c2C#N)S(=O)(=O)C1(F)F (stereo not drawn)"
  measured_target: "HIF-2α HIS TAG-PASB Domain (Homo sapiens)"
  unit: "µM"
  IC50: 16.7
- compound: "NC1CS(=O)(=O)c2ccc(Oc3cc(F)cc(F)c3)c(C(F)F)c21 (stereo not drawn)"
  measured_target: "HIF-2α HIS TAG-PASB Domain (Homo sapiens)"
  unit: "µM"
  IC50: 11.8

a = N#Cc1c(Oc2cc(F)cc(Cl)c2)ccc2c1CCS2(=O)=O
b = O=S1(=O)c2ccc(Oc3cncc(Cl)c3)c(Br)c2[C@@H](O)C1(F)F
Ask | Problem: Given the entries a and b , determine which has the lower reported IC50. Answer format: the label of the selected item.
Reply | b
(b: 0.12 µM, a: 4.86 µM)

----------
tested on: 786-O-Hif-Luc cells; test: Luciferase Assay (HIF responsive element reporter); assay type: cell-based; settings: 24 h, 786-O-Hif-Luc cells, about 24 hours; read-out: Mean Luciferease EC50
result_type: EC50 (nM)

Completed entries (count: 3):
- compound: "N#Cc1cc(F)cc(Oc2ccc3c(c2C#N)C(N)C(F)(F)S3(=O)=O)c1 (centres unmarked)"
  result_type: "EC50"
  reported_measurement: 4600
- compound: "C[C@@]1(O)c2c(ccc(Oc3cc(F)cc(C#N)c3)c2C#N)S(=O)(=O)C1(F)F"
  result_type: "EC50"
  reported_measurement: 18
- compound: "N#Cc1c(Oc2cc(F)cc(F)c2)ccc2c1[C@@H](O)CS2(=O)=O"
  result_type: "EC50"
  reported_measurement: 370

a = CC1(O)c2c(ccc(Oc3cc(F)cc(C#N)c3)c2C#N)S(=O)(=O)C1(F)F (centres unmarked)
b = N#Cc1c(Oc2cc(F)cc(F)c2)ccc2c1C(O)C(F)S2(=O)=O (centres unmarked)
c = N#Cc1cncc(Oc2ccc3c(c2Br)[C@@H](O)C(F)(F)S3(=O)=O)c1
d = N#Cc1cc(Oc2ccc3c(c2C(F)F)[C@@H](O)C(F)(F)S3(=O)=O)ccc1F
e = N#Cc1cccc(Oc2ccc3c(c2Br)[C@@H](O)C(F)(F)S3(=O)=O)c1
Ask | Endpoint returns the given compounds ordered by ascending EC50. Answer with the labels in sequence, matching the requested order.
Reply | e, a, c, d, b

Where these numbers come from: patent US9884843B2
